# Test system: HCI11 (cells of an ER-positive luminal breast cancer xenograft)
# protocol description: cell viability (% of vehicle); higher = less cytotoxic;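 further: PDX cells carrying CMV promoter-driven luciferase, viability read as total photon flux per second by IVIS imaging following D-luciferin, vehicle control 0.1% DMSO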
# setup conditions: 10 µM; 72 h
Counter-ions that a name gives are not always drawn.
observation type: cell viability

>>> reported_measurement("COc1cc(Nc2nc3ccccc3nc2NS(=O)(=O)c2ccc(NC(=O)c3ccc(C)c(OC)c3)cc2)cc(OC)c1")
86.9
>>> reported_measurement("COc1cccc(-c2ccc(NC(=O)C3=C(C(=O)O)CCC3)c(F)c2)c1 [Vidofludimus]")
99.5
>>> reported_measurement("O=c1[nH]c(=O)n(C2CC(O)C(CO)O2)cc1C(F)(F)F (stereo not drawn) [Triflurdine (Viroptic)]")
111
>>> reported_measurement("CCOC(=O)C1=CC(OC(CC)CC)C(NC(C)=O)C(N)C1.O=P(O)(O)O (stereo not drawn) [Oseltamivir phosphate]")
95.4
>>> reported_measurement("CC(OC1OCCN(Cc2nc(=O)[nH][nH]2)C1c1ccc(F)cc1)c1cc(C(F)(F)F)cc(C(F)(F)F)c1 (stereo not drawn) [Aprepitant]")
86.9
>>> reported_measurement("CC(C)(O/N=C(\\C(=O)N[C@@H]1C(=O)N2C(C(=O)[O-])=C(C[n+]3ccccc3)CS[C@H]12)c1csc(N)n1)C(=O)O [Ceftazidime]")
81.6
>>> reported_measurement("CCN(CC)CCNC(=O)c1c(C)[nH]c(C=C2C(=O)Nc3ccc(F)cc32)c1C.O=C(O)CC(O)C(=O)O [Sunitinib malate]")
111
>>> reported_measurement("NS(=O)(=O)c1cc2c(cc1Cl)NC=NS2(=O)=O [Chlorothiazide]")
121
>>> reported_measurement("COc1cc(CNC(=O)CCCCC=CC(C)C)ccc1O [Capsaicin]")
90.6
>>> reported_measurement("O=C(O)c1ccccc1 [Benzoic Acid]")
104
>>> reported_measurement("CCOC(=O)C1OC1C(=O)NC(CC(C)C)C(=O)NCCC(C)C (stereo not drawn)")
91.9
>>> reported_measurement("CN1CCN(c2cc3c(cc2F)c(=O)c(C(=O)O)cn3-c2ccc(F)cc2)CC1 [Difloxacin HCl]")
190
>>> reported_measurement("O=C([O-])c1ccccc1O.[Na+] [Sodium salicylate]")
91.4
>>> reported_measurement("CC(C)(C)c1ccc(C(=O)CCCN2CCC(OC(c3ccccc3)c3ccccc3)CC2)cc1 [Ebastine]")
81.2
>>> reported_measurement("CC(CN(C)C)CN1c2ccccc2CCc2ccccc21.O=C(O)/C=C\\C(=O)O (stereo not drawn) [Trimipramine (maleate)]")
69
>>> reported_measurement("CC(C)Nc1cc(-c2c[nH]c(C(=O)NC(CO)c3cccc(Cl)c3)c2)c(Cl)cn1 (stereo not drawn)")
81.7
>>> reported_measurement("Cl.N=C(N)N [Guanidine HCl]")
85.6
>>> reported_measurement("O=C(Nc1cccc2c(=O)cc(-c3nn[nH]n3)oc12)c1ccc(OCCCCc2ccccc2)cc1 [Pranlukast]")
101
>>> reported_measurement("CC12C=CC(=O)C=C1CCC1C2C(=O)CC2(C)C1CCC2(O)C(=O)CO (stereo not drawn) [Prednisone]")
98.9
>>> reported_measurement("Nc1nccs1 [Aminothiazole]")
117
>>> reported_measurement("Clc1ccc2c(c1)CCc1cccnc1C2=C1CCNCC1 [Desloratadine]")
77.5
>>> reported_measurement("COC(=O)C1=C(C#N)NC(C)=C(C(=O)OC(C)C)C1c1cccc([N+](=O)[O-])c1 (stereo not drawn) [Nilvadipine]")
85.7
>>> reported_measurement("CC1(C)Cc2c(-c3ccccc3)c(-c3ccc(Cl)cc3)c(CC(=O)O)n2C1 [Licofelone]")
90.2
>>> reported_measurement("Cc1ccc(F)c(NC(=O)Nc2ccc(-c3cccc4[nH]nc(N)c34)cc2)c1 [Linifanib (ABT-869)]")
68.7
>>> reported_measurement("CC(O)C1C(=O)N2C(C(=O)O)=C(SC3CNC(CNS(N)(=O)=O)C3)C(C)C12 (stereo not drawn) [Doripenem]")
106
>>> reported_measurement("O=C(O)[C@H](O)[C@@H](O)C(=O)O.c1cnc2cc3c(cc2n1)C1CNC[C@@H]3C1 [Varenicline Tartrate]")
138
>>> reported_measurement("COc1nc(N)nc2c1ncn2C1OC(CO)C(O)C1O (stereo not drawn) [Nelarabine]")
95.9
>>> reported_measurement("CCN(CC)CCOC(=O)C(c1ccccc1)c1ccccc1.Cl [Adiphenine HCl]")
94.9
>>> reported_measurement("CCOC(=O)c1ncn2c1CN(C)C(=O)c1cc(F)ccc1-2 [Flumazenil]")
96.8
>>> reported_measurement("O=C(O)c1cc(-c2ccccc2)nc2ccccc12 [Cinchophen]")
107
>>> reported_measurement("O=C(CS(=O)Cc1ccco1)NCC=CCOc1cc(CN2CCCCC2)ccn1 (stereo not drawn) [Lafutidine]")
108
>>> reported_measurement("CCN(CC)CCNC(=O)c1ccc(N)cc1.Cl [Procainamide HCl]")
95.8
>>> reported_measurement("Cn1c(=O)cc(N2CCCC(N)C2)n(Cc2ccccc2C#N)c1=O (stereo not drawn) [Alogliptin (SYR-322)]")
112

* * *

# Test system: UCD52 (cells of a triple-negative basal-like breast cancer xenograft)
# protocol description: cell viability (% of vehicle); higher = less cytotoxic
# setup conditions: 10 µM; 72 h
observation type: cell viability

>>> reported_measurement("CCOC(=O)C1=C(C)NC(C)=C(C(=O)OC)C1c1cccc([N+](=O)[O-])c1 (stereo not drawn)")
80.1
>>> reported_measurement("Clc1ccc(CSC(Cn2ccnc2)c2ccc(Cl)cc2Cl)cc1.O=[N+]([O-])O (stereo not drawn) [Sulconazole Nitrate]")
35.2
>>> reported_measurement("CC(C)C(N)C(=O)OCCOCn1cnc2c(=O)nc(N)[nH]c21.Cl (stereo not drawn) [Valaciclovir HCl]")
91.8
>>> reported_measurement("CCOC(=O)c1ccc(N)cc1")
117
>>> reported_measurement("CC(C)(OCc1nn(Cc2ccccc2)c2ccccc12)C(=O)O")
83.1
>>> reported_measurement("CCOC(=O)C(CCc1ccccc1)NC(C)C(=O)N1C(C(=O)O)CC2CCCC21 (stereo not drawn)")
87.6
>>> reported_measurement("CCC(Nc1ncnc2nc[nH]c12)c1nc2cccc(F)c2c(=O)n1-c1ccccc1 (stereo not drawn)")
68.3
>>> reported_measurement("CS(=O)(=O)N1CCN(Cc2cc3nc(-c4cccc5[nH]ncc45)nc(N4CCOCC4)c3s2)CC1")
88.5

* * *

# Test system: HCI13 (cells of an ER-positive luminal breast cancer xenograft)
# protocol description: cell viability (% of vehicle); higher = less cytotoxic
# setup conditions: 10 µM; 72 h
Exam item: assign yes (1) to entries whose cell viability is below 90 and no (0) to entries at or above 90. Note that a value of exactly 90 receives no (0).

>>> group_label("CC(=O)O[C@H]1C(=O)[C@@]2(C)[C@H]([C@H](OC(=O)c3ccccc3)[C@]3(O)C[C@H](OC(=O)[C@H](O)[C@@H](NC(=O)c4ccccc4)c4ccccc4)C(C)=C1C3(C)C)[C@]1(OC(C)=O)CO[C@@H]1C[C@@H]2O")
"no (0)"
>>> group_label("CC(=Cc1ccccc1)C=C1SC(=S)N(CC(=O)O)C1=O")
"no (0)"
>>> group_label("CCN1CCN(c2cc3c(cc2F)c(=O)c(C(=O)O)cn3C2CC2)CC1")
"no (0)"
>>> group_label("CC12CCC3c4ccc(O)cc4CCC3C1CC(O)C2O (stereo not given)")
"no (0)"
>>> group_label("COc1ccccc1OCC(O)CN1CCN(CC(=O)Nc2c(C)cccc2C)CC1 (stereo not given)")
"no (0)"
>>> group_label("CCCc1nc(C(C)(C)O)c(C(=O)OCc2oc(=O)oc2C)n1Cc1ccc(-c2ccccc2-c2nn[nH]n2)cc1")
"no (0)"
>>> group_label("CSc1nc2cc(Oc3cccc(Cl)c3Cl)c(Cl)cc2[nH]1")
"yes (1)"
>>> group_label("CNCCC(Oc1cccc2ccccc12)c1cccs1.Cl (stereo not given) [Duloxetine HCl]")
"no (0)"
>>> group_label("COc1ccccc1N1CCN(CCCNc2cc(=O)n(C)c(=O)n2C)CC1.Cl [Urapidil HCl]")
"no (0)"
>>> group_label("Cl.O.O=C1Cc2cc(CCN3CCN(c4nsc5ccccc45)CC3)c(Cl)cc2N1 [Ziprasidone hydrochloride monohydrate]")
"yes (1)"

* * *

# System: WHIM30 (cells of a triple-negative basal-like breast cancer xenograft)
# protocol description: cell viability (% of vehicle); higher = less cytotoxic
# setup conditions: 10 µM; 72 h
Returns: string. Value is fulfilled if measured cell viability is below 100, and not fulfilled if it is greater than or equal to it.

>>> group_label("CON=C(C(=O)NC1C(=O)N2C(C(=O)O)=C(CSC(=O)c3ccco3)CSC12)c1csc(N)n1.Cl (stereo unspecified) [Ceftiofur HCl]")
"not fulfilled"
>>> group_label("CN(CCOc1ccc(CC2SC(=O)NC2=O)cc1)c1ccccn1.O=C(O)C=CC(=O)O (stereo unspecified) [Rosiglitazone maleate]")
"not fulfilled"
>>> group_label("CCOC(=O)OC1(C(=O)OCCl)CCC2C3CCC4=CC(=O)C=CC4(C)C3C(O)CC21C (stereo unspecified) [Loteprednol etabonate]")
"not fulfilled"
>>> group_label("CCCCCCOC(=O)N=C(N)c1ccc(NCc2nc3cc(C(=O)N(CCC(=O)OCC)c4ccccn4)ccc3n2C)cc1")
"not fulfilled"
>>> group_label("CC(=O)c1cc2c(o1)C(=O)c1ccccc1C2=O [Napabucasin]")
"fulfilled"
>>> group_label("O=C(O)C=Cc1ccc(Cn2ccnc2)cc1 [Ozagrel]")
"fulfilled"
>>> group_label("O=C1C(=O)c2ccccc2C(O)=C1C1CCC(c2ccc(Cl)cc2)CC1 (stereo unspecified) [Atovaquone]")
"fulfilled"
>>> group_label("CN1C(C(=O)Nc2ccccn2)=C(O)c2sccc2S1(=O)=O [Tenoxicam]")
"not fulfilled"
>>> group_label("Cc1nnc(C(C)C)n1C1CC2CCC(C1)N2CCC(NC(=O)C1CCC(F)(F)CC1)c1ccccc1 (stereo unspecified) [Maraviroc]")
"not fulfilled"
>>> group_label("CN1CCN2c3ccccc3Cc3ccccc3C2C1.Cl (stereo unspecified) [Mianserin HCl]")
"not fulfilled"
>>> group_label("Nc1ccc(S(=O)(=O)c2ccc(N)cc2)cc1 [Dapsone]")
"not fulfilled"

Data provenance is the supplement of paper PMC6992640.
